Target: arginase II (ARG II) (Homo sapiens, UniProt P78540)
Sequence (P78540 23-354): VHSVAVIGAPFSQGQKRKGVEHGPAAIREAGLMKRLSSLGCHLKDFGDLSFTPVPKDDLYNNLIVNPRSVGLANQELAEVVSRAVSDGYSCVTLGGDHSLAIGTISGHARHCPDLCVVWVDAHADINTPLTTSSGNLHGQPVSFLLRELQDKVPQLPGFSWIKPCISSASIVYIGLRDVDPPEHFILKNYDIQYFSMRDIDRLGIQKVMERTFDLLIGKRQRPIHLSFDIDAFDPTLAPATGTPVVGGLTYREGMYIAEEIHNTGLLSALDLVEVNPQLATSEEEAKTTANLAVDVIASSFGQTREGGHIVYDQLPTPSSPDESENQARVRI
parameter.measured: IC50

1) NC(CCCCB(O)O)(C(=O)O)C1CC2CCC(C1)N2Cc1ccc(Cl)c(Cl)c1 (stereo not shown); 0.1 to 25 nM
2) NC(CCCCB(O)O)(C(=O)O)C1CC2CCC(C1)N2 (stereo not shown); 26 to 100 nM
3) NC(CCCCB(O)O)(C(=O)O)[C@H]1C[C@@H](NCc2ccc(F)c3ccccc23)C1 (stereo partly shown); 0.1 to 25 nM

API: the following record is the query input.
Enquiry: For the record NC(CCCCB(O)O)(C(=O)O)[C@H]1C[C@@H](NCc2cccc(-c3ccc(C(F)(F)F)cc3)c2)C1 (stereo partly shown) , what value of IC50 is listed for arginase II (ARG II) (Homo sapiens, UniProt P78540)?
Return: 0.1 to 25 nM

* * *

IC50 listing for selected molecules.
Biological target: human-Arginase-1 (Homo sapiens)
Sequence (P05089 1-322): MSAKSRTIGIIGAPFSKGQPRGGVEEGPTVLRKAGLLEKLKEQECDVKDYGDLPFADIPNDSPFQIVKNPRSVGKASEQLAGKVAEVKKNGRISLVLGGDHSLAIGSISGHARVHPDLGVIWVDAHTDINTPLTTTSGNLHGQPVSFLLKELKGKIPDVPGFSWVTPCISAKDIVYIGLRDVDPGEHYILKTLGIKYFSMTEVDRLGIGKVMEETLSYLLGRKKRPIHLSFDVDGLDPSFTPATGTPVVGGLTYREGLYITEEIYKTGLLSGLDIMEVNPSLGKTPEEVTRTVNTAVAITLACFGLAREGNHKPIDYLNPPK
Assay: Urea production in CHOK cells stably transfected with human-Arginase-1
Settings: IC50 class, 5 mM arginine, 24 hours, read-out: CHOK Cell

Consider the following illustrative entries.
1. NC(CCCCB(O)O)(C(=O)O)[C@H]1C[C@@H](NCc2ccccc2-c2ccc(C(F)(F)F)cc2)C1 (some centres unmarked); 26 to 100 µM
2. NC(CCCCB(O)O)(C(=O)O)[C@H]1C[C@@H](NCc2ccc(-c3ccc(F)cc3)cc2)C1 (some centres unmarked); 26 to 100 µM
3. NC(CCCCB(O)O)(C(=O)O)[C@H]1C[C@@H](NCc2c3ccccc3cc3ccccc23)C1 (some centres unmarked); 26 to 100 µM

Enquiry: Could you share which IC50 value was measured for Cc1ccc(F)c(-c2ccc(CN[C@H]3C[C@@H](C(N)(CCCCB(O)O)C(=O)O)C3)cc2F)c1 (mixture of isomers) ?
Return: 1 to 25 µM

Enquiry: Please do the same for NC(CCCCB(O)O)(C(=O)O)[C@H]1C[C@@H](NCc2ccc(C3CCCCC3)cc2)C1 (some centres unmarked) as well.
Return: 26 to 100 µM

Enquiry: Also, NC(CCCCB(O)O)(C(=O)O)[C@H]1C[C@@H](NCc2cccc3c(F)cccc23)C1 (some centres unmarked) please.
Return: 1 to 25 µM

Enquiry: Similarly, NC(CCCCB(O)O)(C(=O)O)C1CC2CCC(C1)N2Cc1ccc(Cl)c(Cl)c1 (centres unmarked) ?
Return: 1 to 25 µM

Enquiry: Same again, this time with NC(CCCCB(O)O)(C(=O)O)[C@H]1C[C@@H](NCc2ccc(F)c3ccccc23)C1 (some centres unmarked)
Return: 1 to 25 µM

Enquiry: Okay, and NC(CCCCB(O)O)(C(=O)O)[C@H]1C[C@@H](NCc2ccc(-c3ccc(F)cc3F)c(F)c2)C1 (mixture of isomers) ?
Return: 26 to 100 µM

Enquiry: Same question for NC(CCCCB(O)O)(C(=O)O)[C@H]1C[C@@H](NC2CCC(c3ccccc3)CC2)C1 (mixture of isomers) please.
Return: 26 to 100 µM

Enquiry: Now the same for NC(CCCCB(O)O)(C(=O)O)[C@H]1C[C@@H](NCCCc2ccc(C(F)(F)F)cc2)C1 (some centres unmarked)
Return: 26 to 100 µM
